assayedTarget: T1, monkey (cyno) GPRC5D, on 293T cells (monkey (cyno))
T1 construct: whole, on cells; also called monkey GPRC5D
protocolSummary: FACS on 293T cells expressing monkey (cyno) GPRC5D
MFI.Max values, listed per item

binder	MFI.Max
humanized antibody 26D1 (hz) (antibody, V domains shown) VH: QVQLVQSGAEVKKPGASVKVSCKASGYTFTSYTIQWIKQAPGQGLEWIGYIIPSSGYTNYNQKFKDKATLTADKSSNTAYMELSSLTSEDTAVYYCANNYGNWGFTYWGQGTTVTVSS VL: DIQMTQSPSTLSASVGDRVTITCKASQNVGSAVTWYQQKPGKAPRLLIYSASNRYTGVPDRFSGSGSGTEFTLTISSLQPDDFATYFCQQYSNYPLTFGQGTRLEIKR	12.3 MFI
humanized antibody 24F5 (hz) (antibody, V domains shown) VH: QVQLVQSGAEVKKPGASVKVSCKASGYTFPYYVMHWVRQAPGQGLEWIGYINPYNDGTKYNEKFKGRATLTSDKSTSTAYMELSSLRSEDTAVYYCARGGVRRYFDYWGQGTTVTVSS VL: DIQMTQSPSTLSASVGDRVTITCRASQDIGSNLNWLQQKPGGTIKRLIYATSSLDSGVPSRFSGSRSGSEYTLTISSLQPDDFATYYCLQYATFPYTFGQGTRLEIKR	3560 MFI
humanized antibody 6E97 (hz) (antibody, V domains shown) VH: QVQLVQSGAEVKKPGASVKVSCKASGYTFPYYVIHWVRQAPGQGLEWIGYINPYNAGTKYNEKFKGRATLTSDKSTSTAYMELSSLRSEDTAVYYCARGGVRRYFDYWGQGTTVTVSS VL: DIQLTQSPSTLSASVGDRVTITCRASQDIGSNLNWLQQKPGGTIKRLISATSSLDSGVPSRFSGSRSGSEYTLTISSLQPDDFATYYCLQYATFPYTFGQGTRLEIKR	6250 MFI
humanized antibody 9D7 (hz) (antibody, V domains shown) VH: QVQLQESGPGLVKPSETLSLTCTVSGYSITSDYAWNWIRQPPGKGLEWMGYISYSGSATYSPSLKSRITISRDTSKNQFSLKLSSVTAADTAVYYCARGGIAGRGRWGAMDYWGQGTTVTVSS VL: DIQMTQSPSSLSASVGDRVTITCKASQNVGTNVAWYQQKPGQSPKALIYSASYRDSGVPDRFSGSGSGTDFTLTISSLQPEDFATYYCQQYKSYPLTFGQGTRLEIKR	4260 MFI

Just for reference, patent US20260085114A1 is where these values come from.
